Numbers sourced from PubChem BioAssay AID1918945.

Tested on: 883617-216-R-J1-PDC complex spheroid viability
Assay: Anticancer human tumor 883617-216-R-J1-PDC patient-derived bladder carcinoma cell line growth inhibition
Conditions: second compound 10 µM; first compound 1 µM; stronger effect = lower value
Consider the cut-off 30%. If the recorded viability, T/C is strictly smaller, the label is criterion met; if not, the label is criterion not met.

Recorded results for 3 compounds are shown here.
[[record]]
compound = "O=C(C=Cn1cnc(-c2cc(C(F)(F)F)cc(C(F)(F)F)c2)n1)NNc1cnccn1 + NC1CC1c1ccc(-c2cccc(O)c2)cc1"
class = "criterion met"

[[record]]
compound = "CC(C)c1c(-c2ccccc2)nc2c(C#N)c[nH]n2c1=O + NC1CCC(NC2CC2c2ccccc2)CC1"
class = "criterion not met"

[[record]]
compound = "CC1COCCN1c1cc(-c2ccnn2C)c2ccnc(-c3ccn[nH]3)c2n1 (stereo not given) + NC1CCC(NC2CC2c2ccccc2)CC1"
class = "criterion met"


# next compound below
Q: Strictly below 30% in viability, T/C? Nc1ncn(C2CC(O)C(CO)O2)c(=O)n1 (stereo not given) + NC1CCC(NC2CC2c2ccccc2)CC1
Result: criterion not met

====

Catalogue of viability, T/C values
Test system: 883617-216-R-J1-PDC complex spheroid viability
Experiment: Anticancer human tumor 883617-216-R-J1-PDC cell line growth inhibition;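 also: exposure lasted seven days after three days of spheroid growth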;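 as to viability, T/C: 100% = DMSO vehicle control luminescence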
Details: second compound 1 µM; first compound 0.0316 µM; stronger effect = lower value
Field: numeric (%). Do not append units.

[[record]]
compound = "CC1COCCN1c1cc(C2(S(C)(=N)=O)CC2)nc(-c2ccnc3[nH]ccc23)n1 (centres undefined) + NC1CC1c1ccc(-c2cccc(O)c2)cc1"
value_measured = 101

[[record]]
compound = "Cn1ncnc1C1c2n[nH]c(=O)c3cc(F)cc(c23)NC1c1ccc(F)cc1 (centres undefined) + NC1CCC(NC2CC2c2ccccc2)CC1"
value_measured = 67.3

[[record]]
compound = "O=C(C=Cn1cnc(-c2cc(C(F)(F)F)cc(C(F)(F)F)c2)n1)NNc1cnccn1 + NC1CCC(NC2CC2c2ccccc2)CC1"
value_measured = 36.5


Okay, next one:
Q: Read off the recorded viability, T/C for Nc1ncn(C2CC(O)C(CO)O2)c(=O)n1 (centres undefined) + NC1CCC(NC2CC2c2ccccc2)CC1
Result: 96.7

====

System: 883617-216-R-J1-PDC complex spheroid viability
Test: Anticancer human tumor 883617-216-R-J1-PDC cell line growth inhibition;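 also: exposure lasted seven days after three days of spheroid growth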;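 as to viability, T/C: 100% = DMSO vehicle control luminescence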
Conditions: second compound 0.1 µM; first compound 0.316 µM; stronger effect = lower value
measured-quantity: viability, T/C

Please review the following examples before continuing.
[[record]]
molecule = "Nc1ncn(C2CC(O)C(CO)O2)c(=O)n1 (stereo not drawn) + NC1CC1c1ccc(-c2cccc(O)c2)cc1"
system_tested = "883617-216-R-J1-PDC complex spheroid viability"
value_measured = "64.7%"

[[record]]
molecule = "CC1COCCN1c1cc(C2(S(C)(=N)=O)CC2)nc(-c2ccnc3[nH]ccc23)n1 (stereo not drawn) + NC1CC1c1ccc(-c2cccc(O)c2)cc1"
system_tested = "883617-216-R-J1-PDC complex spheroid viability"
value_measured = "51.9%"

[[record]]
molecule = "COc1cc(Nc2ncc3c(n2)-c2ccc(Cl)cc2C(c2c(F)cccc2OC)=NC3)ccc1C(=O)O + NC1CCC(NC2CC2c2ccccc2)CC1"
system_tested = "883617-216-R-J1-PDC complex spheroid viability"
value_measured = "51.5%"

[[record]]
molecule = "CC1COCCN1c1cc(-c2ccnn2C)c2ccnc(-c3ccn[nH]3)c2n1 (stereo not drawn) + NC1CCC(NC2CC2c2ccccc2)CC1"
system_tested = "883617-216-R-J1-PDC complex spheroid viability"
value_measured = "33.5%"

[[record]]
molecule = "Nc1ncn(C2CC(O)C(CO)O2)c(=O)n1 (stereo not drawn) + NC1CCC(NC2CC2c2ccccc2)CC1"
system_tested = "883617-216-R-J1-PDC complex spheroid viability"
value_measured = "72.6%"

[[record]]
molecule = "CC1(C)CCC(CN2CCN(c3ccc(C(=O)NS(=O)(=O)c4ccc(NCC5CCOCC5)c([N+](=O)[O-])c4)c(Oc4cnc5[nH]ccc5c4)c3)CC2)=C(c2ccc(Cl)cc2)C1 + NC1CCC(NC2CC2c2ccccc2)CC1"
system_tested = "883617-216-R-J1-PDC complex spheroid viability"
value_measured = "109%"


Q: Read off the recorded viability, T/C for O=C(c1cc(Cc2n[nH]c(=O)c3ccccc23)ccc1F)N1CCN(C(=O)C2CC2)CC1 + NC1CC1c1ccc(-c2cccc(O)c2)cc1
Result: 72.5%

Q: Read off the recorded viability, T/C for CC1(C)CCC(CN2CCN(c3ccc(C(=O)NS(=O)(=O)c4ccc(NCC5CCOCC5)c([N+](=O)[O-])c4)c(Oc4cnc5[nH]ccc5c4)c3)CC2)=C(c2ccc(Cl)cc2)C1 + NC1CC1c1ccc(-c2cccc(O)c2)cc1
Result: 125%

Q: Read off the recorded viability, T/C for CC1COCCN1c1cc(-c2ccnn2C)c2ccnc(-c3ccn[nH]3)c2n1 (stereo not drawn) + NC1CC1c1ccc(-c2cccc(O)c2)cc1
Result: 24.6%

Q: Read off the recorded viability, T/C for COc1ccc([C@@H](O)c2cc(-c3ncnc4cc(N5CCOCC5)ccc34)c(F)cc2Cl)nn1 + NC1CC1c1ccc(-c2cccc(O)c2)cc1
Result: 71.5%

Q: Read off the recorded viability, T/C for CC(C)c1c(-c2ccccc2)nc2c(C#N)c[nH]n2c1=O + NC1CCC(NC2CC2c2ccccc2)CC1
Result: 101%

====

Test system: 883617-216-R-J1-PDC complex spheroid viability
Assay: Anticancer human tumor 883617-216-R-J1-PDC cell line growth inhibition;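 also: exposure lasted seven days after three days of spheroid growth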;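 as to viability, T/C: 100% = DMSO vehicle control luminescence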
Details: second compound 3.16 µM; first compound 0.1 µM; stronger effect = lower value
Consider the cut-off 30%. If the recorded viability, T/C is strictly smaller, the label is condition met; if not, the label is condition not met.

Recorded results for 5 compounds are shown here.
[[record]]
compound = "Cn1ncnc1C1c2n[nH]c(=O)c3cc(F)cc(c23)NC1c1ccc(F)cc1 (configuration not stated) + NC1CCC(NC2CC2c2ccccc2)CC1"
class = "condition not met"

[[record]]
compound = "CC1COCCN1c1cc(-c2ccnn2C)c2ccnc(-c3ccn[nH]3)c2n1 (configuration not stated) + NC1CC1c1ccc(-c2cccc(O)c2)cc1"
class = "condition met"

[[record]]
compound = "O=C(C=Cn1cnc(-c2cc(C(F)(F)F)cc(C(F)(F)F)c2)n1)NNc1cnccn1 + NC1CC1c1ccc(-c2cccc(O)c2)cc1"
class = "condition met"

[[record]]
compound = "CC1COCCN1c1cc(-c2ccnn2C)c2ccnc(-c3ccn[nH]3)c2n1 (configuration not stated) + NC1CCC(NC2CC2c2ccccc2)CC1"
class = "condition not met"

[[record]]
compound = "COc1ccc([C@@H](O)c2cc(-c3ncnc4cc(N5CCOCC5)ccc34)c(F)cc2Cl)nn1 + NC1CC1c1ccc(-c2cccc(O)c2)cc1"
class = "condition not met"


Q: Strictly below 30% in viability, T/C? CC[C@@]1(O)C(=O)OCc2c1cc1n(c2=O)Cc2cc3c(CN(C)C)c(O)ccc3nc2-1 + NC1CCC(NC2CC2c2ccccc2)CC1
Result: condition met

Q: Strictly below 30% in viability, T/C? CC(C)CC(NC(=O)C(Cc1ccccc1)NC(=O)c1cnccn1)B(O)O (configuration not stated) + NC1CCC(NC2CC2c2ccccc2)CC1
Result: condition met

====

System: 883617-216-R-J1-PDC complex spheroid viability
Assay: Anticancer human tumor 883617-216-R-J1-PDC cell line growth inhibition;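 also: exposure lasted seven days after three days of spheroid growth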
Settings: curve of first compound; second compound 1 µM
Consider the cut-off 200 nM. If the recorded IC50 is strictly smaller, the label is y; if not, the label is n.

Recorded results for 2 compounds are shown here.
[[record]]
compound = "CC(C)c1c(-c2ccccc2)nc2c(C#N)c[nH]n2c1=O + NC1CCC(NC2CC2c2ccccc2)CC1"
system_tested = "883617-216-R-J1-PDC complex spheroid viability"
class = "n"

[[record]]
compound = "CCN(c1cc(-c2ccc(CN3CCOCC3)cc2)cc(C(=O)NCc2c(C)cc(C)[nH]c2=O)c1C)C1CCOCC1 + NC1CC1c1ccc(-c2cccc(O)c2)cc1"
system_tested = "883617-216-R-J1-PDC complex spheroid viability"
class = "n"


Q: Strictly below 200 nM in IC50? CC(C)CC(NC(=O)CNC(=O)c1cc(Cl)ccc1Cl)B1OC(=O)CC(CC(=O)O)(C(=O)O)O1 (stereo not drawn) + NC1CCC(NC2CC2c2ccccc2)CC1
Result: y

Q: Strictly below 200 nM in IC50? Nc1ccccc1NC(=O)c1ccc(CNC(=O)OCc2cccnc2)cc1 + NC1CCC(NC2CC2c2ccccc2)CC1
Result: n

Q: Strictly below 200 nM in IC50? CC[C@@]1(O)C(=O)OCc2c1cc1n(c2=O)Cc2cc3c(CN(C)C)c(O)ccc3nc2-1 + NC1CCC(NC2CC2c2ccccc2)CC1
Result: y

Q: Strictly below 200 nM in IC50? Nc1ccccc1NC(=O)c1ccc(CNC(=O)OCc2cccnc2)cc1 + NC1CC1c1ccc(-c2cccc(O)c2)cc1
Result: y

Q: Strictly below 200 nM in IC50? CCN(c1cc(-c2ccc(CN3CCOCC3)cc2)cc(C(=O)NCc2c(C)cc(C)[nH]c2=O)c1C)C1CCOCC1 + NC1CCC(NC2CC2c2ccccc2)CC1
Result: n

Q: Strictly below 200 nM in IC50? Nc1ccn(C2OC(CO)C(O)C2(F)F)c(=O)n1 (stereo not drawn) + NC1CC1c1ccc(-c2cccc(O)c2)cc1
Result: y

Q: Strictly below 200 nM in IC50? COc1cc(C2c3cc4c(cc3C(OC3OC5COC(C)OC5C(O)C3O)C3COC(=O)C23)OCO4)cc(OC)c1O (stereo not drawn) + NC1CCC(NC2CC2c2ccccc2)CC1
Result: n

Q: Strictly below 200 nM in IC50? O=C(C=Cn1cnc(-c2cc(C(F)(F)F)cc(C(F)(F)F)c2)n1)NNc1cnccn1 + NC1CC1c1ccc(-c2cccc(O)c2)cc1
Result: y

Q: Strictly below 200 nM in IC50? O=C(c1cc(Cc2n[nH]c(=O)c3ccccc23)ccc1F)N1CCN(C(=O)C2CC2)CC1 + NC1CCC(NC2CC2c2ccccc2)CC1
Result: n

Q: Strictly below 200 nM in IC50? COc1ccc([C@@H](O)c2cc(-c3ncnc4cc(N5CCOCC5)ccc34)c(F)cc2Cl)nn1 + NC1CC1c1ccc(-c2cccc(O)c2)cc1
Result: n

Q: Strictly below 200 nM in IC50? CC1COCCN1c1cc(-c2ccnn2C)c2ccnc(-c3ccn[nH]3)c2n1 (stereo not drawn) + NC1CCC(NC2CC2c2ccccc2)CC1
Result: y
